FYI, the data here is from patent US11576897B2.

Where a name gives a salt, the structure may show the parent alone.
Consider compounds characterized by their Ki with human 5-HT2C receptor (Homo sapiens (Human), UniProt P28335).
Sequence (P28335 whole entry, looked up): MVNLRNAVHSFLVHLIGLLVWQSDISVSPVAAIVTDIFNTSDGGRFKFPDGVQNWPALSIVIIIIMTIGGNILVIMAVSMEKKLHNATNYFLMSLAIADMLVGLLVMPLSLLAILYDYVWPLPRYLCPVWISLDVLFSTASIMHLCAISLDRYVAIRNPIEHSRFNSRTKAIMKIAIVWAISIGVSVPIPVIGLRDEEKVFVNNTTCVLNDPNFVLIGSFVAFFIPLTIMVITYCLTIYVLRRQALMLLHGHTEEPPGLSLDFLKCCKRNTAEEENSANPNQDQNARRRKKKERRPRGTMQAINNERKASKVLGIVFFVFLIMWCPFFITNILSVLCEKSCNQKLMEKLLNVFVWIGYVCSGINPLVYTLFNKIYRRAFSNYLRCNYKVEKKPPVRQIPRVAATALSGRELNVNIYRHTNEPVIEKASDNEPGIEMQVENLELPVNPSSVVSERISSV
Hi! Could you send only the number? It should be in nM, unit omitted.

[2H]C([2H])([2H])NC([2H])([2H])c1cc(OCc2ccccc2)n(CC2CCCCC2)n1: 7.2
[2H]C([2H])(NC)c1cc(OCc2ccccc2)n(CC2CCCCC2)n1: 6.8
Cl.[2H]C([2H])(Oc1cc(CNC)nn1CC1CCCC1)c1cc(Cl)ccc1F: 1.1
[2H]C([2H])(Oc1cc(CNC)nn1CC1CCCC1)c1cc(F)ccc1F [Example 495, Hydrochloride]: 2.5
[2H]C([2H])([2H])NCc1cc(OCc2ccccc2)n(CC2CCCCC2)n1: 7.1

We now examine a further compound.
Query: Which Ki value belongs to CNCc1cc(OCc2ccccc2Cl)n(C(C)C2CCCCC2)n1 (stereo not drawn) ?
Response: 6.2
